Experimental Target: KRAS G12C (Homo sapiens, UniProt P01116, G12C)
Construct: HIS-KRAS (G12C, aa 2-185, Sino biological)
Sequence (P01116 2-185 isoform P01116-2 G12C): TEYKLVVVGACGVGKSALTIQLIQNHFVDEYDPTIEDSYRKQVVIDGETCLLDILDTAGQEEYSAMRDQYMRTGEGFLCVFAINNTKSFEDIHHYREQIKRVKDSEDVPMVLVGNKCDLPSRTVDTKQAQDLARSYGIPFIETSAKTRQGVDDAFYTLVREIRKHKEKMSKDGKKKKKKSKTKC
Procedure Text: SOS1 catalyzed nucleotide exchange assay (TR-FRET)
Protocol Conditions: GDP-loaded HIS-KRAS(G12C), 1 hour pre-incubation with compound
Below, each entry is listed with its recorded log10 of IC50.
Heads up: the numbers are on a log10 scale; they represent IC50 in nM.

Below, each entry is followed by its recorded log10 of IC50 result.
Molecule	Experimental Target	log10 of IC50
C=CC(=O)N1CCN(c2nc(OCC3(CN4CCCC4)CCC3)nc3c2CCN(c2cccc4cccc(C)c24)C3)CC1CC#N (stereo not drawn)	KRAS G12C (Homo sapiens, UniProt P01116, G12C)	1.12
C=CC(=O)N1CCN(c2nc(OCC3(CN4CCC4)CC3)nc3c2CCN(c2cccc(Cl)c2C(F)(F)F)C3)CC1CC#N (stereo not drawn)	KRAS G12C (Homo sapiens, UniProt P01116, G12C)	0.86
C=C(F)C(=O)N1CCN(c2nc(OCC3(CN4CCCC4)CC3)nc3c2CCN(c2cccc4cccc(C)c24)C3)CC1CC#N (stereo not drawn)	KRAS G12C (Homo sapiens, UniProt P01116, G12C)	1.07
C=CC(=O)N1CCN(c2nc(OCC3(CN4CCCC4)CC3)nc3c2CCN(c2cccc4cccc(C)c24)C3)C[C@@H]1CC#N	KRAS G12C (Homo sapiens, UniProt P01116, G12C)	0.26
C=C(F)C(=O)N1CCN(c2nc(OCC3(CN(C)C)CC3)nc3c2CCN(c2cccc4cccc(C)c24)C3)C[C@@H]1CC#N	KRAS G12C (Homo sapiens, UniProt P01116, G12C)	0.59

Query: Look at this molecule and give its reported log10 of IC50. C=CC(=O)N1CCN(c2nc(OCC3(CN(C)CCN(C)C)CC3)nc3c2CCN(c2cccc4cccc(C)c24)C3)CC1CC#N (stereo not drawn)
Reply: 0.23

Query: # iterate: C=CC(=O)N1CCN(c2nc(OCC3(CN4CCC4)CC3)nc3c2CCN(c2cccc4ccccc24)C3)CC1CC#N (stereo not drawn)
Reply: 1.13

Query: # iterate: C=C(F)C(=O)N1CCN(c2nc(OCC3(CN(C)C)CC3)nc3c2CCN(c2cccc4cccc(Cl)c24)C3)CC1CC#N (stereo not drawn)
Reply: 0.78

Query: # iterate: C=CC(=O)N1CCN(c2nc(OCC3(N(C)C)CC3)nc3c2CCN(c2cccc4ccccc24)C3)CC1CC#N (stereo not drawn)
Reply: 2.25

Query: # iterate: C=C(F)C(=O)N1CCN(c2nc(OCC3(CN4CCN(C)CC4)CC3)nc3c2CCN(c2cccc4cccc(C)c24)C3)CC1CC#N (stereo not drawn)
Reply: 0.88

Query: # iterate: C=CC(=O)N1CCN(c2nc(OCC3CCCC(N(C)C)C3)nc3c2CCN(c2ccccc2C(F)(F)F)C3)CC1CC#N (stereo not drawn)
Reply: 2.25

Query: # iterate: C=CC(=O)N1CCN(c2nc(OCC3(CN4CCN(C)CC4)CC3)nc3c2CCN(c2cccc4cccc(C)c24)C3)CC1CC#N (stereo not drawn)
Reply: 0.17

Query: # iterate: C=C(F)C(=O)N1CCN(c2nc(OCC3(CN(C)C)CC3)nc3c2CCN(c2cccc4cccc(C)c24)C3)CC1CC#N (stereo not drawn)
Reply: 0.92

Query: # iterate: C=CC(=O)N1CCN(c2nc(OCC3CCCC3N(C)C)nc3c2CCN(c2cccc4cccc(C)c24)C3)CC1CC#N (stereo not drawn)
Reply: 0.98

Query: # iterate: CN(C)CC1(COc2nc3c(c(N4CCN(C(=O)/C=C/CF)[C@@H](CC#N)C4)n2)CCN(c2cccc4cccc(Cl)c24)C3)CC1
Reply: 0.20

Query: # iterate: C=C(F)C(=O)N1CCN(c2nc(OCC3(CN4CC(N(C)C)C4)CC3)nc3c2CCN(c2cccc4cccc(C)c24)C3)CC1CC#N (stereo not drawn)
Reply: 0.86

---

System: Phospho-ERK1/2(THR202/TYR204) in NCI-H358 cells express KRAS G12C
Procedure Text: Phospho-ERK1/2(THR202/TYR204) HTRF assay
Format: cell-based
Protocol Conditions: Homo sapiens; NCI-H358, 2 hours incubation; read-out: p-ERK inhibition in NCI-H358 IC50
Lab note: cut-off is 200 nM. Strictly less in IC50 is y. Exactly 200 nM or more is n.

Compound	Class Label
COC/C=C/C(=O)N1CCN(c2nc(OCC3(CN(C)C)CC3)nc3c2CCN(c2cccc4cccc(C)c24)C3)CC1CC#N (stereo not shown)	y
C=CC(=O)N1CCN(c2nc(OCC3(CN4CC[C@H](N(C)C)C4)CC3)nc3c2CCN(c2cccc4cccc(C)c24)C3)CC1CC#N (stereo partly shown)	y
C=CC(=O)N1CCN(c2nc(OCC3(CN(C)C)CC3)nc3c2CCN(c2cccc4ccccc24)C3)CC1CC#N (stereo not shown)	y
C=CC(=O)N1CCN(c2nc(OCC3CCCC3N(C)C)nc3c2CCN(c2ccccc2C(F)(F)F)C3)CC1CC#N (stereo not shown)	n

Query: Find out if reported IC50 for Cc1cccc2cccc(N3CCc4c(nc(OCC5(CN(C)C)CC5)nc4N4CCN(C(=O)/C=C/CF)[C@@H](CC#N)C4)C3)c12 is less than 200 nM
Reply: y

Query: # iterate: Cc1cccc2cccc(N3CCc4c(nc(OCC5(CN(C)C)CC5)nc4N4CCN(C(=O)/C=C/CN(C)C)C(CC#N)C4)C3)c12 (stereo not shown)
Reply: y

Query: # iterate: C=CC(=O)N1CCN(c2nc(OCC3CCC(N(C)C)C3)nc3c2CCN(c2cccc4ccccc24)C3)CC1CC#N (stereo not shown)
Reply: n

---

Test system: Phospho-ERK1/2(THR202/TYR204) in NCI-H358 cells express KRAS G12C
Procedure Text: Phospho-ERK1/2(THR202/TYR204) HTRF assay
Type: cell-based
Protocol Conditions: Homo sapiens; NCI-H358, 2 hours incubation; read-out: p-ERK inhibition in NCI-H358 IC50
Property: IC50

Query: Look at this molecule and give its reported IC50. C=CC(=O)N1CCN(c2nc(OC(C)C3(CN(C)C)CC3)nc3c2CCN(c2cccc4cccc(C)c24)C3)CC1CC#N (centres unmarked)
Reply: 296 nM

---

Experimental Target: KRAS G12C (Homo sapiens, UniProt P01116, G12C)
Construct: HIS-KRAS (G12C, aa 2-185, Sino biological)
Procedure Text: SOS1 catalyzed nucleotide exchange assay (TR-FRET)
Protocol Conditions: GDP-loaded HIS-KRAS(G12C), 1 hour pre-incubation with compound
Property: IC50 (nM)
The answer is to be given in nM; state only the numeric part.

Below, each entry is followed by its recorded IC50 result.
Compound	IC50 [nM]
C=CC(=O)N1CCN(c2nc(OCC3CCCC3N(C)C)nc3c2CCN(c2cccc4ccccc24)C3)CC1CC#N (stereo not shown)	54.1
C=CC(=O)N1CCN(c2nc(OCC3(C(=O)N4CCN(C)CC4)CC3)nc3c2CCN(c2cccc4cccc(C)c24)C3)CC1CC#N (stereo not shown)	30.9
C=CC(=O)N1CCN(c2nc(OCC3CCCC3N(C)C)nc3c2CCN(c2cccc(Cl)c2Cl)C3)CC1CC#N (stereo not shown)	30.2
COC/C=C/C(=O)N1CCN(c2nc(OCC3(CN(C)C)CC3)nc3c2CCN(c2cccc4cccc(C)c24)C3)CC1CC#N (stereo not shown)	3.41
C=C(F)C(=O)N1CCN(c2nc(OCC3(CN(C)C)CC3)nc3c2CCN(c2cccc(C)c2C)C3)CC1CC#N (stereo not shown)	285

Query: Look at this compound and give its reported IC50. C=CC(=O)N1CCN(c2nc(OCC3(CN(C)C)CC3)nc3c2CCN(c2c(C)ccc4[nH]ncc24)C3)CC1CC#N (stereo not shown)
Reply: 12.1

Query: # iterate: C=CC(=O)N1CCN(c2nc(OCC3CCCCC3N(C)C)nc3c2CCN(c2cccc4ccccc24)C3)CC1CC#N (stereo not shown)
Reply: 428

---

Below, each entry is listed with its recorded pIC50.
Experimental Target: KRAS G12C (Homo sapiens, UniProt P01116, G12C)
Construct: HIS-KRAS (G12C, aa 2-185, Sino biological)
Procedure Text: SOS1 catalyzed nucleotide exchange assay (TR-FRET)
Protocol Conditions: GDP-loaded HIS-KRAS(G12C), 1 hour pre-incubation with compound
Please keep in mind that pIC50 is minus log10 of the molar concentration; only the number is needed.

Below, each entry is followed by its recorded pIC50 result.
Compound	pIC50
C=CC(=O)N1CCN(c2nc(OCC3(CN4CC[C@@H](F)C4)CC3)nc3c2CCN(c2cccc4cccc(C)c24)C3)CC1CC#N (stereo partly shown)	8.51
C/C=C/C(=O)N1CCN(c2nc(OCC3(CN4CCCC4)CC3)nc3c2CCN(c2cccc4cccc(C)c24)C3)CC1CC#N (stereo not shown)	7.18

Query: Look at this compound and give its reported pIC50. C=CC(=O)N1CCN(c2nc(OC3CCC(N(C)C)C3)nc3c2CCN(c2cccc4ccccc24)C3)CC1CC#N (stereo not shown)
Reply: 6.17

Query: # iterate: C=CC(=O)N1CCN(c2nc(OCC3(CN4CCCC4)CC3)nc3c2CCN(c2cccc(Cl)c2C(F)(F)F)C3)CC1CC#N (stereo not shown)
Reply: 8.28

Query: # iterate: C=CC(=O)N1CCN(c2nc(OCC3(CN4CCCC4)CC3)nc3c2CCN(c2cccc4ccccc24)C3)CC1CC#N (stereo not shown)
Reply: 7.72

Just for reference, patent US20210040089A1 is where these values come from.
